Value source: PubChem BioAssay (NCI)

- Tested on: OVCAR-8 ovarian
- test.details: NCI-60 one-dose screen, 48 h (100 = growth as untreated, 0 = no growth, -100 = all killed)
- experimental.parameters: 10 µM unless noted
Compounds without any hit were thinned out: in the full panel of roughly 83,000, 20% have a hit.
endpoint.label: growth (%)
Give bare numbers, in %.

Consider the worked cases shown below.
# compound, value.observed
rows = [
    ("CCCCC(=O)Nc1c(C(=O)Nc2ccccc2)sc2nc3c(cc12)C(OC(=O)CCCC)CCC3 (stereo not drawn)", 84.7),
    ("CC(C)C1=C[C@@]23CC[C@H]4[C@](C)(COCCC#N)CCC[C@]4(C)[C@H]2C[C@@H]1[C@@H]1[C@H]3[C@@H](OCCC#N)CC[C@@H]1OCCC#N", 34.4),
    ("COc1ccc(/C=C(/C(=O)N2CCCC2)c2cc(OC)c(OC)c(OC)c2)cc1", 40),
    ("CC1(C)[C@@H](O)CC[C@]2(C)[C@H]3CC[C@@H]4[C@H]5[C@H](c6cn(-c7ccccc7)nn6)CC[C@]5(CO)CC[C@@]4(C)[C@]3(C)CC[C@@H]12", 85.2),
    ("O=c1[nH]c(-c2cccc(F)c2)cc2cc(F)ccc12", 30.2),
    ("COc1cc2nc3c(=O)n(-c4ccc(C#N)cc4)cnn3c(=O)c2cc1OC", 108),
    ("COc1ccc(C(=S)c2cc(OC)c(OC)c(OC)c2)cc1OC(=O)CCl", 14.4),
]

Form field: growth recorded for COc1ccc2c(c1)C1(C(=O)N2)C(C#N)=C(c2ccccc2)Nc2c1c(-c1ccccc1)nn2-c1ccccc1 (stereo not drawn) with OVCAR-8 ovarian (enter value)
-10.9

###

- Tested on: MOLT-4 leukemia
- test.details: NCI-60 one-dose screen, 48 h (100 = growth as untreated, 0 = no growth, -100 = all killed)
- experimental.parameters: 10 µM unless noted
About 83,000 compounds went through this panel and 20% of them were active in at least one assay; those are over-represented in the sample as a whole.
Rule for this label: Condition met means growth is less than 20%; Condition not met means growth is at least 20%.

Below, 3 molecules whose answers are already recorded.
# smiles.string, category.label
measured = [
    ("O=c1[nH]c(-c2cccc(F)c2)cc2cc(F)ccc12", "Condition not met"),
    ("N#Cc1ccc(N2Cc3cc(Cl)ccc3OC3=C2C(=O)N(Cc2ccccc2)C3=O)cc1", "Condition met"),
    ("CCO/C=N/S(=O)(=O)c1cc2c(cc1Cl)NC=NS2(=O)=O", "Condition not met"),
]

Quick check: growth of `CSc1nc(-c2ccc(F)cc2)c(C#N)c(N2CCOCC2)n1` under 20%?
Condition not met

Lab log: compare recorded growth with 20%; is it strictly lower for `Cc1cc(O)cc(O)c1N=NC1=NCCS1` ?
Condition not met

Is it true that growth reported for `CN1CCN(C(=O)[C@@]2(C)CC[C@]3(C)CC[C@]4(C)C(=CC[C@@H]5[C@@]6(C)CC[C@H](OC(=O)c7cccnc7)C(C)(C)[C@@H]6CC[C@]54C)[C@@H]3C2)CC1` is less than 20%?
Condition not met

Could you please tell me whether growth recorded for `COc1ccc(Nc2cc(NC(=O)CNc3cc(OC)c(Cl)c(OC)c3Cl)ncn2)cc1` is less than 20%?
Condition not met

Check if growth falls below 20% for `N#Cc1c(-c2ccc(F)cc2)nc(N=Nc2c(O)[nH]c3ccc(Cl)cc23)nc1N1CCOCC1` .
Condition not met

Does `O=C(/C(=C/c1ccc([N+](=O)[O-])cc1)SCc1ccccc1)c1ccc(Cl)cc1` have growth strictly under 20%?
Condition met

###

- Tested on: SR leukemia
- test.details: NCI-60 one-dose screen, 48 h (100 = growth as untreated, 0 = no growth, -100 = all killed)
- experimental.parameters: 10 µM unless noted
About 83,000 compounds went through this panel and 20% of them were active in at least one assay; those are over-represented in the sample as a whole.
What growth was measured for each of the following?
Give bare numbers, in %.

# compound, endpoint.label, unit.of.measurement, value.observed
measured = [
    ("CSc1nc(-c2ccc(F)cc2)c(C#N)c(N2CCOCC2)n1", "growth", "%", 85.9),
    ("Nc1c(C(=O)Nc2ccccn2)sc2nc3c(cc12)CCCC3", "growth", "%", 9.84),
]

Required: growth, one value per compound below.
1. CN(C)C1=NCCN1
2. COc1ccc2c(c1)Oc1nc(N)c(C#N)c(N)c1C2Sc1ccc(SC)cc1 (stereo unspecified)

1. 108
2. -17.5

For every record below, what is its growth?
1. CCOc1ccccc1C(=O)/C=C/c1cc2ccccc2[nH]c1=O
2. COc1ccc2nc(-c3ccc(Cl)cc3)cc(-c3nnc(SC/C(=N/O)c4ccccc4)o3)c2c1

4
7.97

###

- Test system: RXF 393 renal
- test.details: NCI-60 one-dose screen, 48 h (100 = growth as untreated, 0 = no growth, -100 = all killed)
- experimental.parameters: 10 µM unless noted
About 83,000 compounds went through this panel and 20% of them were active in at least one assay; those are over-represented in the sample as a whole.
Checkbox rule: growth lower than 60% = Y; growth not lower than 60% = N.

Completed entries (count: 4):
# compound, category.label
rows = [
    ("CC1CCCN(CCCCCOc2ccc3oc4ccc(Cl)cc4c(=O)c3c2)C1 (centres undefined)", "N"),
    ("O=c1c2ccccc2oc2ccc(OCCCCCCN3CCCCCC3)cc12", "Y"),
    ("O=C(/C(=C/c1ccc([N+](=O)[O-])cc1)SCc1ccc(F)cc1)c1ccc(Cl)cc1", "N"),
    ("COc1ccc(N(C)c2nc(Cl)nc3ccn(C)c23)cc1", "Y"),
]

hey, is growth for CCCS(=O)(=O)Nc1ccc(F)c(C(=O)c2c[nH]c3ncc(-c4ccc(OCCCC5CCCCN5)nc4)cc23)c1F (centres undefined) lower than 60% or not?
N

State whether 60% exceeds growth recorded for `CN(C)[C@@H]1C(=O)C(C(N)=O)=C(O)[C@@]2(O)C(=O)C3=C(O)c4c(O)cc(CN5CCc6ccccc6C5)c(Cl)c4C[C@H]3C[C@@H]12` .
Y

Could you please tell me whether growth recorded for N#Cc1ccc(C2C3=C(CCCC3=O)OC3=C2C(=O)c2ccccc2C3=O)cc1 (centres undefined) is less than 60%?
N

Please determine if O=CN1N=C(c2ccc(Cl)cc2)CC1c1cccc(Nc2ccnc3cc(C(F)(F)F)ccc23)c1 (centres undefined) is below 60% in terms of growth.
N

I wonder whether `Cc1cc(Nc2nc(SCc3ccc(C(=O)Nc4ccc(F)cc4N)cc3)nn3cccc23)n[nH]1` has growth below 60%. Can you tell?
Y

###

- System: SF-295 CNS
- test.details: NCI-60 one-dose screen, 48 h (100 = growth as untreated, 0 = no growth, -100 = all killed)
- experimental.parameters: 10 µM unless noted
This is part of a sample that, as a whole, favours compounds with a hit. Of some 83,000 tested, about 20% had one in any assay.
Threshold rule: growth greater than or equal to 80% is 1 (yes); below that, 0 (no).

For orientation, consider the following solved cases.
# molecule, test.system, category.label
data = [
    ("CCC1S/C(=N\\N=C(/C)c2ccc[nH]2)N(c2ccccc2)C1=O (centres undefined)", "SF-295 CNS", "1 (yes)"),
    ("C#CCN1C(=O)c2ccccc2N(CC#C)C12CCN(Cc1cn(CC(=O)Nc3ccccc3C(N)=O)nn1)CC2", "SF-295 CNS", "1 (yes)"),
    ("Cc1cc(C)nc(NS(=O)(=O)c2ccc(Nc3ccc4c5c(n(CCCN(C)C)c(=O)c4c3)-c3ccccc3C5=O)cc2)n1", "SF-295 CNS", "1 (yes)"),
    ("COc1cccc2c1-c1ccccc1C2=O", "SF-295 CNS", "0 (no)"),
    ("O=c1[nH]c2ccccc2cc1-c1nc2ccc(Cl)cc2[nH]1", "SF-295 CNS", "0 (no)"),
    ("O=[N+]([O-])c1ccc(Oc2ccc(-c3ccccc3)cc2)cc1", "SF-295 CNS", "1 (yes)"),
    ("CC(C)(C)CC(C)(C)Cc1ccc(OCCOCC[N+](C)(C)Cc2ccccc2)cc1", "SF-295 CNS", "0 (no)"),
    ("O=C(N/N=C/C[C@@H]1[C@@H](/C=C/[C@@H](O)COc2cccc(Cl)c2)[C@H](O)C[C@@H]1O)c1ccncc1", "SF-295 CNS", "1 (yes)"),
]

Read the next record carefully.
Say whether `C#C[C@@]1(O)[C@@H](CO)O[C@@H](n2cnc3c(-c4ccccc4)ncnc32)[C@@H]1O` shows growth of 80% or more.
1 (yes)

###

- Tested on: NCI/ADR-RES ovarian
- test.details: NCI-60 one-dose screen, 48 h (100 = growth as untreated, 0 = no growth, -100 = all killed)
- experimental.parameters: 10 µM unless noted
This is part of a sample that, as a whole, favours compounds with a hit. Of some 83,000 tested, about 20% had one in any assay.
# binarize growth: threshold 80% inclusive, high side true (1), low side false (0)

See these solved cases before continuing.
# molecule, category.label
records = [
    ("CCN1CCC[C@H]1c1cc(O)c2c(c1OC)C[C@H]1C[C@H]3[C@H](N)C(=O)C(C(N)=O)=C(O)[C@@]3(O)C(=O)C1=C2O", "false (0)"),
    ("COc1cc2c(cc1OCCCOc1cc3c(cc1OC)C(=O)N1CC(F)(F)C[C@H]1C=N3)N=C[C@@H]1CC(F)(F)CN1C2=O", "false (0)"),
    ("N#Cc1c(-c2ccc(F)cc2)c(C#N)c2c(C#N)c(N)nn2c1N", "true (1)"),
    ("CCCCc1n(Cc2ccc3ccccc3n2)cc[n+]1Cc1ccc2ccccc2c1", "true (1)"),
    ("COc1ccccc1N1CCN(CCCOc2ccc(C(=O)/C=C3/C(=O)Nc4ccccc43)cc2)CC1", "false (0)"),
]

Quick check, growth >= 80%? `CC(=O)OC[C@]12CC[C@@H](c3cn(Cc4ccc(Cn5cc([C@@H]6CC[C@]7(COC(C)=O)CC[C@]8(C)[C@H](CC[C@@H]9[C@@]%10(C)CC[C@H](OC(C)=O)C(C)(C)[C@@H]%10CC[C@]98C)[C@@H]67)nn5)cc4)nn3)[C@@H]1[C@H]1CC[C@@H]3[C@@]4(C)CC[C@H](OC(C)=O)C(C)(C)[C@@H]4CC[C@@]3(C)[C@]1(C)CC2`
true (1)

Can Cc1cccc(C)c1NC(=O)CN(CC(C)C)CC(O)COc1ccccc1 (centres undefined) be said to have growth at or above 80%?
true (1)

Test whether the molecule CCCCC1=c2c([nH]c3ccc(OC)cc23)=NC2C=CC=NC12 (centres undefined) records growth of 80% or higher.
true (1)
